Tested on: RAW264.7
Test: Anti-inflammatory activity against LPS-induced mouse RAW264.7 cells assessed as reduction in IL-1beta gene expression at 50 uM treated for 24 hrs by RT-qPCR analysis relative to control
Assay type: functional
Design: scale not given: the % may be the effect or the level left
Short version: Activity at least 60% is true, less is false.

Reported Activity reaches at least 60% for "COc1cc(C(=O)OC[C@H]2O[C@@H](Oc3cc4occ(-c5ccc(O)cc5)c(=O)c4c(O)c3OC)[C@H](O)[C@@H](O)[C@@H]2O)ccc1O" ?
false

Reported Activity reaches at least 60% for "COc1c(O[C@@H]2O[C@H](CO)[C@@H](O)[C@H](O)[C@H]2O)cc(O)c2c(=O)c(-c3ccc(O)cc3)coc12" ?
false

Reported Activity reaches at least 60% for "COc1c(O[C@@H]2O[C@H](CO)[C@@H](O)[C@H](O)[C@H]2O)cc2occ(-c3ccc(O)cc3)c(=O)c2c1O" ?
false

Reported Activity reaches at least 60% for "COc1c(O)cc2occ(-c3ccc(O)cc3)c(=O)c2c1O" ?
true

* * *

Tested on: RAW264.7
Test: Anti-inflammatory activity against LPS-induced mouse RAW264.7 cells assessed as effect on TNF-alpha gene expression at 50 uM treated for 24 hrs by RT-qPCR analysis
Type: functional, cell-based
Activity calls are given as the source filed them. The calls are words filed in the database; no cut-off is given here.
recorded_metric: Activity

input_smiles=COc1c(O[C@@H]2O[C@H](CO)[C@@H](O)[C@H](O)[C@H]2O)cc2occ(-c3ccc(O)cc3)c(=O)c2c1O study_system=RAW264.7 result=inactive
input_smiles=COc1c(O[C@@H]2O[C@H](CO)[C@@H](O)[C@H](O)[C@H]2O)cc(O)c2c(=O)c(-c3ccc(O)cc3)coc12 study_system=RAW264.7 result=inactive
input_smiles=COc1c(O[C@@H]2O[C@H](CO)[C@@H](O)[C@H](O)[C@H]2O)cc2occ(-c3ccc(O[C@@H]4O[C@H](CO)[C@@H](O)[C@H](O)[C@H]4O)cc3)c(=O)c2c1O study_system=RAW264.7 result=inactive
